melting point listing for selected molecules.

query: Find the recorded melting point belonging to CC1=Nc2cc(Cl)cc(Cl)c2CN1C1CC(=O)NC1=O (stereo not drawn) [Example 15d] and report it.
result: 199 to 201 °C

query: Next molecule: COc1cccc2c1N=CN(C1CC(=O)NC1=O)C2 (stereo not drawn)
result: 195 to 200 °C

---

A collection of compounds and their measured melting point

Some entries whose results are on file:
- compound: "O=C1CC(N2C=Nc3cc(Cl)ccc3C2)C(=O)N1 (stereo not shown)"
  test_result: "194 °C"
- compound: "CC1=Nc2ccc(Cl)c(Cl)c2CN1C1CC(=O)NC1=O (stereo not shown) [Example 15c]"
  test_result: "161 to 166 °C"
- compound: "CC1=Nc2cc(Cl)ccc2CN1C1CC(=O)NC1=O (stereo not shown) [Example 15bb]"
  test_result: "153 to 155 °C"
- compound: "COc1cc2c(cc1OC)N=CN(C1CC(=O)NC1=O)C2 (stereo not shown) [Example 10b]"
  test_result: "189 to 200 °C"
- compound: "CC1=Nc2cc(F)cc(F)c2CN1C1CC(=O)NC1=O (stereo not shown) [Example 15e]"
  test_result: "176 to 178 °C"

query: # lookup: melting point of CC1=Nc2c(Br)cc(C)cc2CN1C1CC(=O)NC1=O (stereo not shown) [Example 15ff]
result: 145 to 150 °C

query: Same lookup for O=C1CC(N2C=Nc3ccc(Cl)cc3C2)C(=O)N1 (stereo not shown) [Example 10c] , please.
result: 166 °C

query: Param item: O=C1CC(N2C=Nc3ccc(OCc4ccccc4)cc3C2)C(=O)N1 (stereo not shown)
result: 171 to 173 °C

query: Another compound: O=C1CC(N2C=Nc3c(Cl)cccc3C2)C(=O)N1 (stereo not shown)
result: 194 °C

query: Note, next up: O=C1CC(N2C=Nc3cccc(OCc4ccccc4)c3C2)C(=O)N1 (stereo not shown) [Example 12d]
result: 100 to 108 °C

query: What do you get for CN1C(=O)CC(N2C=Nc3ccccc3C2)C1=O (stereo not shown) [Example 11d] ?
result: 163 to 164 °C

---

observation_type: melting point

For orientation, consider the following solved cases.
- compound: "CC1=Nc2cc([N+](=O)[O-])ccc2CN1C1CC(=O)NC1=O (stereo not shown) [Example 15ee]"
  test_result: "203 to 210 °C"
- compound: "O=C1CC(N2C=Nc3c(Cl)cc(Cl)cc3C2)C(=O)N1 (stereo not shown)"
  test_result: "230 to 232 °C"

query: So what does the record say about melting point for CC1=Nc2ccc(OCc3ccccc3)cc2CN1C1CC(=O)NC1=O (stereo not shown) [Example 15x] ?
result: 132 to 143 °C

query: Another compound: O=C1CC(N2C=Nc3ccc([N+](=O)[O-])cc3C2)C(=O)N1 (stereo not shown)
result: 168 to 172 °C

query: Same again, this time with CC(C)Oc1cccc2c1CN(C1CC(=O)NC1=O)C=N2 (stereo not shown) [Example 12e]
result: 191 to 192 °C

query: Thanks! And COCCOc1cccc2c1CN(C1CC(=O)NC1=O)C=N2 (stereo not shown) [Example 12f] ?
result: 288 to 290 °C

query: Entry to check: O=C1CC(N2C=Nc3ccc(Cl)c(Cl)c3C2)C(=O)N1 (stereo not shown)
result: 174 to 178 °C

query: Would you mind doing CC1=Nc2ccc(Cl)cc2CN1C1CC(=O)NC1=O (stereo not shown) [Example 15y] as well?
result: 195 to 203 °C

query: Query CC1=Nc2cc(F)cc(Cl)c2CN1C1CC(=O)NC1=O (stereo not shown) [Example 15j] next
result: 179 to 181 °C

query: Next up: CC1=Nc2ccccc2CN1C1CC(=O)NC1=O (stereo not shown) [Example 15b]
result: 72 to 75 °C

The measurements presented in this section are drawn from patent US20080293749A1.
